System: SNB-19 CNS
Assay: NCI-60 one-dose screen, 48 h
Settings: 10 µM unless noted
The panel holds about 83,000 compounds, 20% with a hit somewhere; the sample as a whole holds those more often. The source made the active and inactive calls. How the source made its calls: active means growth percent below 10; inactive means the rest.
Answer with one of the outcomes active, inactive

Input: Recorded test outcome, item CCCC(O)Cn1ncc(C(=O)OCC)c1NC(=O)NCc1cccc(F)c1 (stereo not drawn)
Output: inactive

Input: Given CN1C(=O)N(C)C2C1NC(=S)N2/N=C/C=C/c1ccccc1[N+](=O)[O-] (stereo not drawn) , state the outcome it received in this test.
Output: inactive

Input: Query: recorded result category for `Cc1ccc2[nH]c(-c3ccc(S(C)(=O)=O)cc3)c(/C=N/N=C(N)N)c2c1` in this test
Output: inactive

Input: Dear colleague, could you share the recorded outcome for `COc1ccc(C2=C/C(=C\c3ccc(Cl)cc3)C(=O)N2/N=C/c2ccc(Cl)cc2)cc1` when you have a moment?
Output: inactive

Input: Recorded call for CC(C)=CC(=O)N[C@@H]1CC2CCC3C(CC[C@@]4(C)C3CC[C@@H]4C(C)N(C)C)[C@@]2(C)C[C@@H]1O (stereo partly drawn) ?
Output: inactive

Input: For this compound, state the assay outcome: `Nc1c(C(=O)Nc2cccc3ncccc23)sc2nc3c(cc12)C(=O)CCC3`
Output: inactive

Input: Dear all, I need the recorded test outcome for `COc1ccc2c(c1)c(-c1nonc1-c1c[nH]c3ccc(Br)cc13)cn2C` , thank you.
Output: inactive

Input: # fetch the recorded call for `COc1cc(/C=C\c2cc(/C=C\c3ccc(O)c(OC)c3)n(C(=O)CNc3ccc(Cl)cc3)n2)ccc1O` here
Output: inactive

Input: How was `C=C1C(=O)O[C@H]2[C@H]1CC/C(Cn1cc(-c3cc(C(F)(F)F)cc(C(F)(F)F)c3)nn1)=C\CC[C@@]1(C)O[C@@H]21` classified in this test?
Output: active

Input: Recorded call for `N#Cc1c(-c2ccccc2)nc2c(c(-c3ccccc3)nn2-c2ccccc2)c1-c1ccc(N2CCOCC2)cc1` ?
Output: inactive

Input: Dear colleague, could you share the recorded outcome for `O=C(Nc1ccc(F)cc1)Nc1ccccc1CNc1nc(Nc2ccc(OCCN3CCCC3)cc2)ncc1Cl` when you have a moment?
Output: inactive

Input: Dear colleague, could you share the recorded outcome for COc1cccc(C(=O)OCC(O)C(=O)NC23CC4CC(CC(C4)C2)C3)c1 (stereo not drawn) when you have a moment?
Output: inactive

Input: Dear all, I need the recorded test outcome for `O=C1/C(=C/c2cccc([N+](=O)[O-])c2)COc2ccc(O)cc21` , thank you.
Output: inactive

Input: Call for entry NC(CSC(c1ccccc1)(c1ccccc1)c1ccc2c(c1)OCO2)C(=O)O (stereo not drawn) :
Output: inactive

Input: Entry `CC/C=C\C/C=C/C=C1/C(=O)C=C[C@@H]1C/C=C\CCCC(=O)OC` : call = ?
Output: inactive

Input: What did this assay record as the result for `O=C(Nc1nc(C(=O)N2CCN(C(c3ccccc3)c3ccccc3)CC2)cs1)c1ccc(NC2CCCCC2)c([N+](=O)[O-])c1` ?
Output: inactive

Input: # fetch the recorded call for `N#Cc1nc2c(S(=O)(=O)c3ccccc3)c(N)n(Cc3cccnc3)c2nc1C#N` here
Output: inactive

Input: Could you check what this test reported for `NC(=O)c1ccc(NC(=O)c2oc3ccccc3c2-c2cnn(-c3ccccc3)c2)cc1` ?
Output: active
